Numbers sourced from patent US7084140B2.

Where a name gives a salt, the structure may show the parent alone.
observable: pKi
Interpret pKi as the negative base-10 log of the concentration measured in mol/L.

QUERY: Provide measured pKi on NK1-receptor (substance P-receptor) (Homo sapiens, UniProt P25103) for CN1CCC(N2CCN(C(C(=O)N(C)CCc3cc(C(F)(F)F)cc(C(F)(F)F)c3)c3ccccc3)CC2)CC1 (stereo not drawn) please.
Sequence (P25103 whole entry): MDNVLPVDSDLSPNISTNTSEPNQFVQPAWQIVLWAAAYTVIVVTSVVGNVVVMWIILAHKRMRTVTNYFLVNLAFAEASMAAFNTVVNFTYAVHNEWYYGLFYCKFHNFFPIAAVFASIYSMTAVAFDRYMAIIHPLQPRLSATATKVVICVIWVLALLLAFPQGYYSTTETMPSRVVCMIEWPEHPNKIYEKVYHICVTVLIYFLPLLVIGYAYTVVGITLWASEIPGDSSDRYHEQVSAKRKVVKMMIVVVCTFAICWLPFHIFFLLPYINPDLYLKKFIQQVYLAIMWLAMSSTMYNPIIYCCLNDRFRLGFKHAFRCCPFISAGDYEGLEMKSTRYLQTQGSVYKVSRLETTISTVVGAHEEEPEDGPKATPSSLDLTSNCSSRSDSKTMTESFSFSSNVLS
RESULT: 8.60

QUERY: Provide measured pKi on NK1-receptor (substance P-receptor) (Homo sapiens, UniProt P25103) for CCN(CC)C1CCN(C(C(=O)N(C)CCc2cc(C(F)(F)F)cc(C(F)(F)F)c2)c2ccccc2)CC1 (stereo not drawn) please.
RESULT: 9.01

QUERY: Provide measured pKi on NK1-receptor (substance P-receptor) (Homo sapiens, UniProt P25103) for CC(C)N1CCN(C(C(=O)N(C)CCc2cc(C(F)(F)F)cc(C(F)(F)F)c2)c2ccccc2)CC1 (racemic) [Example 1, dihydrochloride] please.
RESULT: 8.92
